OBSERVED PROPERTY: melting point

# MOLECULE SMILES, OBSERVED PROPERTY, ASSAY RESULT
measured = [
    ("O=C1COc2cc(Sc3ccc(O)c(O)c3)ccc2N1", "melting point", "236 to 238 °C"),
    ("Nc1cccc(Oc2ccc3c(c2)OCC(=O)N3)c1", "melting point", "209 to 210 °C"),
    ("O=C1COc2cc(SCc3ccccc3)ccc2N1", "melting point", "154 to 155 °C"),
    ("O=C1COc2cc(Nc3ccc(O)cc3)ccc2N1", "melting point", "270 to 275 °C"),
    ("COc1ccc(Nc2ccc3c(c2)OCC(=O)N3)cc1", "melting point", "174 to 175 °C"),
    ("O=C1COc2cc(Oc3ccc(O)cc3)ccc2N1", "melting point", "250 to 251 °C"),
    ("Nc1ccccc1Sc1ccc2c(c1)OCC(=O)N2", "melting point", "204 to 205 °C"),
    ("CC(=O)Nc1ccc(Oc2ccc3c(c2)OCC(=O)N3)cc1", "melting point", "230 to 232 °C"),
    ("Nc1ccc(Sc2ccc3c(c2)OCC(=O)N3)cc1", "melting point", "232 to 234 °C"),
    ("Nc1cccc(Sc2ccc3c(c2)OCC(=O)N3)c1", "melting point", "181 to 182 °C"),
    ("COc1ccc(Oc2ccc3c(c2)OCC(=O)N3)cc1", "melting point", "163 to 164 °C"),
    ("Nc1ccccc1Oc1ccc2c(c1)OCC(=O)N2", "melting point", "149 to 150 °C"),
    ("O=C1COc2cc(Sc3ccc(O)cc3)ccc2N1", "melting point", "224 to 225 °C"),
    ("COc1ccc(Sc2ccc3c(c2)OCC(=O)N3)cc1OC", "melting point", "170 to 171 °C"),
    ("O=C1COc2cc(SCc3ccc(O)cc3)ccc2N1", "melting point", "207 to 209 °C"),
]

Where do these numbers come from? They come from patent US6951855B2.
